Entries below carry reported MIC on M. bovigenitalium ATCC 14173.
Kindly provide the numeric value in µg/mL only, without the unit symbol.

A selection of reference data follows.
compound="C/C(=C\\C(=O)OCc1cc(C#N)cc(C#N)c1)CC1OCC(CC2OC2C(C)C(C)O)C(O)C1O (stereo not drawn) [Example 6, 3,5-Dicyanobenzyl monate A]" value_reported=0.025
compound="C/C(=C\\C(=O)OCc1cccc(C#N)c1)CC1OCC(C/C=C/C(C)C(C)O)C(O)C1O (stereo not drawn) [Example 5, m-Cyanobenzyl monate C]" value_reported=0.1

Continue with the next compound.
Record summary for C/C(=C\C(=O)OC(C)c1ccc(C#N)cc1)CC1OCC(CC2OC2C(C)C(C)O)C(O)C1O (stereo not drawn) [Example 4, 1-(p-Cyanophenyl)ethyl monate A] : reported MIC = 0.025
